- target_desc: Adrenergic receptor alpha-1 (Rattus norvegicus) (UniProt P15823+P23944+P43140)
- test_summary: In vitro postsynaptic antagonist potency at alpha-1 adrenergic receptor in rat anococcygeus relative to compound 5 (RX781094); AG means compound is agonist.
- Type: functional
- run_parameters: filed as agonist
readout_type: Antagonist potency

// worked examples, Antagonist potency included
>>> result("Oc1ccc2c(c1)OC(C1=NCCN1)CO2 (stereo not drawn)")
"Agonist"
>>> result("Oc1ccc2c(c1)OCC(C1=NCCN1)O2 (stereo not drawn)")
"Agonist"
>>> result("Cc1ccc(C)c2c1OCC(C1=NCCN1)O2 (stereo not drawn)")
"Agonist"
>>> result("Oc1cccc2c1OCC(C1=NCCN1)O2 (stereo not drawn)")
"Agonist"
>>> result("Cc1cccc2c1OC(C1=NCCN1)CO2 (stereo not drawn)")
"Agonist"
>>> result("Clc1cccc2c1OC(C1=NCCN1)CO2 (stereo not drawn)")
"Agonist"
>>> result("Clc1ccc(Cl)c2c1OCC(C1=NCCN1)O2 (stereo not drawn)")
"Agonist"

Shifting focus to the compound that follows.
# Antagonist potency lookup, item Cc1cccc2c1OCC(C1=NCCN1)O2 (stereo not drawn)
Agonist

Origin of values: ChEMBL document CHEMBL1122229
